# Tgt: GABA-A receptor; alpha-1/beta-2/gamma-2 (Rattus norvegicus) (UniProt P18508+P62813+P63138)
# Test: Activity at rat GABA-Aalpha1 receptor plus beta2gamma2L expressed in Xenopus laevis oocyte assessed as ratio of GABA-mediated current in presence to absence of compound at 1 uM
# Assay type: functional
Measured Ratio by item
// no unit, no text: just the number

[
  {
    "Compound": "C[C@]12C[C@H]3CC[C@@H](CCO)CC3C[C@@H]1CC[C@@H]2C#N (single isomer, unassigned; 2b)",
    "Tgt": "GABA-A receptor; alpha-1/beta-2/gamma-2 (Rattus norvegicus) (UniProt P18508+P62813+P63138)",
    "Property Measured": "Ratio",
    "Numeric Result": 2.11
  }
]

# value of Ratio, GABA-A receptor; alpha-1/beta-2/gamma-2 (Rattus norvegicus) (UniProt P18508+P62813+P63138), item C[C@]12CC[C@@H]3C[C@H](CCO)CC[C@H]3[C@@H]1CCC2=O = 1.03

# value of Ratio, GABA-A receptor; alpha-1/beta-2/gamma-2 (Rattus norvegicus) (UniProt P18508+P62813+P63138), item C[C@]12CC[C@@H](O)C[C@H]1CC[C@@H]1[C@@H]2CC[C@]2(C)[C@@H](C#N)CC[C@@H]12 = 10.4

# value of Ratio, GABA-A receptor; alpha-1/beta-2/gamma-2 (Rattus norvegicus) (UniProt P18508+P62813+P63138), item CC(=O)[C@H]1CC[C@H]2[C@@H]3CC[C@H]4C[C@H](O)CC[C@]4(C)[C@H]3CC[C@]12C [BREXANOLONE] = 3.89

# value of Ratio, GABA-A receptor; alpha-1/beta-2/gamma-2 (Rattus norvegicus) (UniProt P18508+P62813+P63138), item C[C@]12CC[C@@H](O)C[C@@H]1CC[C@@H]1[C@@H]2CC[C@]2(C)C(=O)CC[C@@H]12 [ANDROSTERONE] = 1.41

# value of Ratio, GABA-A receptor; alpha-1/beta-2/gamma-2 (Rattus norvegicus) (UniProt P18508+P62813+P63138), item CC(=O)[C@H]1CC[C@H]2[C@@H]3CC[C@@H]4C[C@H](O)CC[C@]4(C)[C@H]3CC[C@]12C [ELTANOLONE] = 2.82

# value of Ratio, GABA-A receptor; alpha-1/beta-2/gamma-2 (Rattus norvegicus) (UniProt P18508+P62813+P63138), item CC(=O)[C@H]1CC[C@H]2[C@@H]3CC[C@H](CCO)C[C@H]3CC[C@]12C = 3.79

====

# Tgt: GABA-A receptor; alpha-1/beta-2/gamma-2 (Rattus norvegicus) (UniProt P18508+P62813+P63138)
# Test: Activity at rat GABA-Aalpha1 receptor plus beta-2-gamma-2L expressed in Xenopus laevis oocyte assessed as ratio of GABA-mediated current in presence to absence of compound at 10 uM
# Format: functional
Property Measured: Ratio
// no unit, no text: just the number

Here is how some molecules turned out for Ratio.
[
  {
    "Molecule": "C[C@]12CC[C@@H](O)C[C@H]1CC[C@@H]1[C@@H]2CC[C@]2(C)C(=O)CC[C@@H]12",
    "Tgt": "GABA-A receptor; alpha-1/beta-2/gamma-2 (Rattus norvegicus) (UniProt P18508+P62813+P63138)",
    "Numeric Result": 1.39
  },
  {
    "Molecule": "C[C@]12C[C@H]3CC[C@@H](CCO)CC3C[C@@H]1CCC2=O (single isomer, unassigned; 1c)",
    "Tgt": "GABA-A receptor; alpha-1/beta-2/gamma-2 (Rattus norvegicus) (UniProt P18508+P62813+P63138)",
    "Numeric Result": 1.02
  },
  {
    "Molecule": "CC(=O)[C@H]1CC[C@H]2[C@@H]3CC[C@@H](CCO)C[C@H]3CC[C@]12C",
    "Tgt": "GABA-A receptor; alpha-1/beta-2/gamma-2 (Rattus norvegicus) (UniProt P18508+P62813+P63138)",
    "Numeric Result": 3.63
  }
]

Note to self: Ratio recorded for C[C@]12CC[C@@H](O)C[C@@H]1CC[C@@H]1[C@@H]2CC[C@]2(C)C(=O)CC[C@@H]12 was 5.44

Note to self: Ratio recorded for CC(=O)[C@H]1CC[C@H]2[C@@H]3CC[C@H](CCO)C[C@H]3CC[C@]12C was 9.35

Note to self: Ratio recorded for C[C@]12C[C@H]3CC[C@@H](CCO)CC3C[C@@H]1CC[C@@H]2C#N (single isomer, unassigned; 2b) was 7.21

Note to self: Ratio recorded for C[C@]12C[C@H]3CC[C@@H](CCO)CC3C[C@@H]1CCC2=O (single isomer, unassigned; 1b) was 3.54

Note to self: Ratio recorded for C[C@]12C[C@H]3CC[C@H](CCO)CC3C[C@@H]1CC[C@@H]2C#N (single isomer, unassigned; 2d) was 2.17

Note to self: Ratio recorded for C[C@]12CC[C@@H](O)C[C@@H]1CC[C@@H]1[C@@H]2CC[C@]2(C)[C@@H](C#N)CC[C@@H]12 was 8.28

Note to self: Ratio recorded for CC(=O)[C@H]1CC[C@H]2[C@@H]3CC[C@@H]4C[C@H](O)CC[C@]4(C)[C@H]3CC[C@]12C was 9.77

Note to self: Ratio recorded for C[C@]12CC[C@@H]3C[C@@H](CCO)CC[C@H]3[C@@H]1CC[C@@H]2C#N was 7.42

Note to self: Ratio recorded for C[C@]12CC[C@@H](O)C[C@H]1CC[C@@H]1[C@@H]2CC[C@]2(C)[C@@H](C#N)CC[C@@H]12 was 20.6

Note to self: Ratio recorded for C[C@]12C[C@H]3CC[C@H](CCO)CC3C[C@@H]1CCC2=O (single isomer, unassigned; 1a) was 2.42

Note to self: Ratio recorded for C[C@]12CC[C@@H]3C[C@@H](CCO)CC[C@H]3[C@@H]1CCC2=O was 2.11

Note to self: Ratio recorded for C[C@]12CC[C@@H]3C[C@H](CCO)CC[C@H]3[C@@H]1CCC2=O was 1.05

====

# Tgt: GABA-A receptor; alpha-1/beta-2/gamma-2 (Rattus norvegicus) (UniProt P18508+P62813+P63138)
# Test: Activity at rat GABA-Aalpha1 receptor plus beta-2-gamma-2L expressed in Xenopus laevis oocyte assessed as ratio of current evoked by compound alone in absence of GABA to current evoked by 2 uM GABA at 10 uM
Measured Ratio by item
// no unit, no text: just the number

[
  {
    "Molecule": "CC(=O)[C@H]1CC[C@H]2[C@@H]3CC[C@H]4C[C@H](O)CC[C@]4(C)[C@H]3CC[C@]12C [BREXANOLONE]",
    "Property Measured": "Ratio",
    "Numeric Result": 0.37
  },
  {
    "Molecule": "C[C@]12CC[C@@H]3C[C@@H](CCO)CC[C@H]3[C@@H]1CC[C@@H]2C#N",
    "Property Measured": "Ratio",
    "Numeric Result": 0.01
  },
  {
    "Molecule": "C[C@]12CC[C@@H]3C[C@H](CCO)CC[C@H]3[C@@H]1CC[C@@H]2C#N",
    "Property Measured": "Ratio",
    "Numeric Result": 0.54
  },
  {
    "Molecule": "C[C@]12C[C@H]3CC[C@H](CCO)CC3C[C@@H]1CCC2=O (single isomer, unassigned; 1a)",
    "Property Measured": "Ratio",
    "Numeric Result": -0.02
  },
  {
    "Molecule": "CC(=O)[C@H]1CC[C@H]2[C@@H]3CC[C@@H](CCO)C[C@H]3CC[C@]12C",
    "Property Measured": "Ratio",
    "Numeric Result": 0.14
  },
  {
    "Molecule": "C[C@]12CC[C@@H](O)C[C@H]1CC[C@@H]1[C@@H]2CC[C@]2(C)[C@@H](C#N)CC[C@@H]12",
    "Property Measured": "Ratio",
    "Numeric Result": 0.09
  }
]

Proceeding to the next molecule to report its Ratio.
Note to self: Ratio recorded for CC(=O)[C@H]1CC[C@H]2[C@@H]3CC[C@H](CCO)C[C@H]3CC[C@]12C was 0.13

====

# Tgt: GABA-A receptor; alpha-1/beta-2/gamma-2 (Rattus norvegicus) (UniProt P18508+P62813+P63138)
# Test: Activity at rat GABA-Aalpha1 receptor plus beta-2-gamma-2L expressed in Xenopus laevis oocyte assessed as ratio of GABA-mediated current in presence to absence of compound at 10 uM
# Format: functional
Measured Ratio by item

Here is how some compounds turned out for Ratio.
[
  {
    "Compound": "C[C@]12CC[C@@H]3C[C@H](CCO)CC[C@H]3[C@@H]1CC[C@@H]2C#N",
    "Ratio": 12.2
  },
  {
    "Compound": "CC(=O)[C@H]1CC[C@H]2[C@@H]3CC[C@H]4C[C@H](O)CC[C@]4(C)[C@H]3CC[C@]12C [BREXANOLONE]",
    "Ratio": 9.65
  },
  {
    "Compound": "C[C@]12C[C@H]3CC[C@@H](CCO)CC3C[C@@H]1CC[C@@H]2C#N (single isomer, unassigned; 2c)",
    "Ratio": 3.23
  },
  {
    "Compound": "C[C@]12C[C@H]3CC[C@H](CCO)CC3C[C@@H]1CC[C@@H]2C#N (single isomer, unassigned; 2a)",
    "Ratio": 3.9
  }
]

Proceeding to the next compound to report its Ratio.
Note to self: Ratio recorded for C[C@]12C[C@H]3CC[C@H](CCO)CC3C[C@@H]1CCC2=O (single isomer, unassigned; 1d) was 1.21
